Sourced from patent US20250042994A1

Molecular target: T1, Human CD19-his protein (human, UniProt P15391 20-291)
T1 construct: bought protein; also called recombinant human CD19-His; CD19 full-length protein; not shown: His tag
T1 sequence (looked up): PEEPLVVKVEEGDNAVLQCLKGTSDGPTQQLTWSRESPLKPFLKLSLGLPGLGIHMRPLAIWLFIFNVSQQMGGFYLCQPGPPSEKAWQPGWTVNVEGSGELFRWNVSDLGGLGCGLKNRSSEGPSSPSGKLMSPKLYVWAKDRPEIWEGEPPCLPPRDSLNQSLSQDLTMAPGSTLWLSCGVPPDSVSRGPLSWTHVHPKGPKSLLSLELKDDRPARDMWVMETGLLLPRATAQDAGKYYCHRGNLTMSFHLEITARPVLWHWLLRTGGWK
Test: SPR Biacore, Ab captured on Protein A, CD19-His analyte
Exercise: state measured koff for each of the binders provided.
Answer in s⁻¹, number only, no unit symbol.

koff for F3.5.1 (antibody, human IgG1, V domains shown, human-murine chimeric antibody, human IgG1 constant) VH: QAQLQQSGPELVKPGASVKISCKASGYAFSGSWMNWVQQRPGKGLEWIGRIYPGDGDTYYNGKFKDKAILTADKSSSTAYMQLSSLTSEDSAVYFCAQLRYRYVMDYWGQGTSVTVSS VL: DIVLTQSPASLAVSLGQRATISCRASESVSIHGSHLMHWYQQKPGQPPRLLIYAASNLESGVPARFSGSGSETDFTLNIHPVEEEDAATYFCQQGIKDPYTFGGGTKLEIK ? 8.47e-05

koff for F3.133.14 (antibody, human IgG1, V domains shown, human-murine chimeric antibody, human IgG1 constant) VH: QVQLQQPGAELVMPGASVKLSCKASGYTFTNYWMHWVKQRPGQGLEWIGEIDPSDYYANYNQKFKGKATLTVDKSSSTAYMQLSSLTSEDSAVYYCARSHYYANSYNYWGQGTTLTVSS VL: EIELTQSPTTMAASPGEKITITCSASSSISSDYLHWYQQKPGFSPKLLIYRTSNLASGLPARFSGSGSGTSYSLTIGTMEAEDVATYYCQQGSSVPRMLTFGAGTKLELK ? 8.84e-05

koff for F4.4.6 (antibody, human IgG1, V domains shown, human-murine chimeric antibody, human IgG1 constant) VH: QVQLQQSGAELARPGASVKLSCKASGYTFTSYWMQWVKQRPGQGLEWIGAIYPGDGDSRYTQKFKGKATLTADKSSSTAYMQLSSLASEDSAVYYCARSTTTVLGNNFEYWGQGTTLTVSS VL: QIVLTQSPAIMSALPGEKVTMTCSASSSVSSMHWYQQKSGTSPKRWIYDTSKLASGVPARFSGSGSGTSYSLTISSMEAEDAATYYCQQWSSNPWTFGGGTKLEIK ? 0.0019

koff for F5.7.1 (antibody, human IgG1, V domains shown, human-murine chimeric antibody, human IgG1 constant) VH: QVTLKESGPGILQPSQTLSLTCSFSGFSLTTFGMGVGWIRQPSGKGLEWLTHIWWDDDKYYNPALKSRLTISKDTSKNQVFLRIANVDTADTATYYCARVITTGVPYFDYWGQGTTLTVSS VL: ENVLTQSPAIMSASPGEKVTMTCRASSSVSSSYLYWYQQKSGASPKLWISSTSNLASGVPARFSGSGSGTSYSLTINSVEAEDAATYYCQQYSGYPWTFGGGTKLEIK ? 0.000225
